Listing of entries alongside the reported MIC.
# Test system: Staphylococcus aureus
# Experiment notes: Antimicrobial activity against methicillin-resistant Staphylococcus aureus MTCC 96 after 24 hrs by two fold dilution method
# Type: functional
# Test parameters: MTCC 96, 24 h
Property: MIC

>  <Compound smiles>
CC[C@@H](N[C@@H](C)[C@H](O)c1ccccc1)c1ccccc1.Cl

>  <Readout value>
31.2 µg/mL

$$$$
>  <Compound smiles>
CC(C)C[C@H](C)N[C@H](C)[C@@H](O)c1ccccc1.Cl

>  <Readout value>
125 µg/mL

$$$$
>  <Compound smiles>
C[C@H](N[C@H](C)c1ccccc1)[C@H](O)c1ccccc1.Cl

>  <Readout value>
250 µg/mL

$$$$
